Cited source for all entries: PubChem BioAssay AID248

System: L1210 leukemia ip in BDF1 mice, survival T/C
Test: NCI In Vivo Anticancer Drug Screen. Data for tumor model L1210 Leukemia (intraperitoneal) in B6D2F1 (BDF1) mice
Details: endpoint: mean survival time; dose: 25.0 mg/kg/injection; schedule: Q04DX003 (ip); vehicle: Klucel (hydroxypropylcellulose) (HPC); higher = longer survival
Toxic doses and inconclusive results are not listed.
The entries below are paired with their reported T/C.

Bench note: what T/C did "CCC[CH2][Pb]([CH2]CCC)([CH2]CCC)[n]1ccnc1" show?
97 % of control

Request the reported T/C associated with "CC1=C(N2CC2)C(=O)c2ccccc2C1=O"
102 % of control

Could you share which T/C value was measured for CCOC(=O)C1(C(=O)OCC)C(C)CC(OCC)N1C(=O)c1cc2c(cc1[N+](=O)[O-])OCO2 (stereo unspecified) ?
92 % of control

Given the molecule "O=c1c2nccnc2[nH]n1-c1ccccc1" , what is its reported T/C?
90 % of control

What value of T/C has been reported for the following molecule? "CCOC(=O)c1[nH]c(C)c(/C=C/C(=O)O)c1C"
98 % of control

Entry "COc1ccccc1N1CCN(CCc2c[nH]c3cc4c(cc23)OCO4)CC1" : reported T/C = ?
102 % of control
